Quick reference for CC50 at 4 days among some compounds
assay: Compound cytotoxicity, XTT-based colorimetric assay; format: cell-based; conditions: human; uninfected MT2 cells, day 4, XTT

CS(=O)(=O)Nc1nn(CC(F)F)c2c(-n3c([C@H](Cc4cc(F)cc(F)c4)NC(=O)Cn4nc(C(F)F)c5c4C(F)(F)[C@@H]4C[C@H]54)nc4cc(-c5cccnn5)ccc4c3=O)ccc(Cl)c12 (atropisomer, axis not shown): > 500 nM

# input for lookup
Supply recorded CC50 at 4 days for Cn1nc(NS(C)(=O)=O)c2c(Cl)ccc(-n3c([C@H](Cc4cc(F)cc(F)c4)NC(=O)Cn4nc(C(F)F)c5c4C(F)(F)[C@@H]4C[C@H]54)nc4cc(-c5cccnn5)ccc4c3=O)c21 (atropisomer, axis not shown; (P)) here. > 500 nM
